Conditions: 293.15 K; 101.33 kPa; Liquid; Pycnometric method
measure_name: mass density (kg/m3)
# unit: kg/m3 | format: bare number

Worked cases, answers included:
> print(dat)
                                 molecule  observed.result
1  CCC(C)(C)OC [2-methoxy-2-methylbutane]            770.6
2  COC(C)(C)C [2-methoxy-2-methylpropane]            740.5
3                  C1CCCCC1 [cyclohexane]            778.4
4                         CCCCCC [hexane]            659.4

Data request: Check the records and state mass density for Cc1ccccc1 [toluene]
Data returned: 866.2

====

Assay: refractive index (Na D-line) (dimensionless)
Settings: 298.15 K; 101.33 kPa; Liquid; Standard Abbe refractometry
Numbers after ± are expanded uncertainties.
refractive index: recorded values

Worked cases, answers included:
> print(dat)
   smiles.text      measure.name  observed.result
1     C1CCCCC1  refractive index  1.4236 ± 0.0008
2       CCCCCC  refractive index  1.3722 ± 0.0007
3   COC(C)(C)C  refractive index   1.366 ± 0.0008
4  CCC(C)(C)OC  refractive index  1.3867 ± 0.0008

Please turn your attention to the following entry.
Data request: Check the records and state refractive index for Cc1ccccc1
Data returned: 1.4941 ± 0.0008
